Biological target: T1, cynomolgus monkey HVEM (cynomolgus monkey, UniProt A0A2K5W0R1 39-203); also: test concentration or dose not given here
T1 sequence: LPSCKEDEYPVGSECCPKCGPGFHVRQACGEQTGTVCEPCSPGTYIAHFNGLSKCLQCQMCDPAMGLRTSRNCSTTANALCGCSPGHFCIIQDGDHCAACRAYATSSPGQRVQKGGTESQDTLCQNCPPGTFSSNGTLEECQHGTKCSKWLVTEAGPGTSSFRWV
Experiment: ELISA
parameter_measured: ELISA signal
One number for each entry.

For each of the items listed, what is its ELISA signal?
1. Ab_042 (H5S15-28A23A) (antibody, V domains shown, also called Ab_42) VH: QVQLQQSGAELVKPGASVKMSCKAFGYTFTTYPIEWMKQNHGKSLEWIGNFHPYNDDTKYNEKFKGKAKLTVEKSSSTVYLELSRLTSDDSAVYYCARGGFAYWGQGTLVTVSA VL: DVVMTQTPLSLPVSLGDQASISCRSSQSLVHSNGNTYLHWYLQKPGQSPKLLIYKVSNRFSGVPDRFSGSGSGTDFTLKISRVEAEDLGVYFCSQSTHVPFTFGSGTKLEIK
2. Ab_051 (H5S19-4A6A) (antibody, V domains shown, also called Ab_51) VH: QVQLKESGPGLVAPSQSLSITCTVSGFSLTGYGVNWVRQPPGKGLEWLGMIWGDGNTDYNSALKSRLSISKDNSKSQVFLKMNSLQTDDTARYYCARSYGSYWGQGTLVTVSA VL: QIVLTQSPAIMSASPGEKVTMTCSASSSVSYMYWYQQKPGSSPRLLIYDTSNLASGVPVRFSGSGSGTSYSLTISRMEAEDAATYYCQQWSSYPFTFGSGTKLEIK
3. Ab_052 (H5S19-18A17B) (antibody, V domains shown, also called Ab_52) VH: QVQLKESGPGLVAPSQSLSITCTVSGFSLTIYGVHWVRQPPGKGLEWLGVIWAGGIINYNSALMSRLSISKDNSKSQVFLKMNSLQSDDTAMYYCARDWERDSSGPFAYWGQGTLVTVSA VL: DIQMTQTTSSLSASLGDRVTISCSASQGISNYLNWYQQKPDGTVKLLIYYTSSLHSGVPSRFRGSGSGTDYSLTISNLEPEDIATYYCQQYSKLPWTFGGGTKLEIK
4. Ab_015 (H5S14-16A13A) (antibody, V domains shown, also called Ab_15) VH: EVQLVESGGGLVKPGGSLKLSCAASGFTFSDYYMYWVRQTPEKRLEWVATISDGGSYTYYPDSVKGRFTISRDNAKNNLYLQMSSLKSEDTAMYYCARDGNYYAMDYWGQGTSVTVSS VL: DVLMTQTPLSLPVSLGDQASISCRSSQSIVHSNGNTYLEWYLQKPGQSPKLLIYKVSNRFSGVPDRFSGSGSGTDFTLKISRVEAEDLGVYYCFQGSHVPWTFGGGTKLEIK
5. Ab_077 (H5S20-31A16B) (antibody, V domains shown, also called Ab_77) VH: EVQLQQSGAELVRSGASVKLSCTTSGFNIKDYYMHWVKQRPEQGLEWIGWIDPENGDTEYAPKFQGKATMTADTSSNTAYLQLSSLTSEDTAVYYCNSRTLGYWGQGTLVTVSA VL: QIVLTQSPALMSASPGEKVTMTCSASSSVSFIYWYQQKPRSSPKPWIYLTSNLASGVPARFSGSGSGTSYSLTISSMEAEDAATYYCQQWSSNPLTFGAGTKLEL
6. Ab_005 (H5S14-4A4A) (antibody, V domains shown, also called Ab_5) VH: EVQLQQSGPELVKPGASVKISCKTSGYTFTEYTMHWVKQSHGKSLEWIGGINPYNGGTINNQKFKGKATLTVDMSSSTAYMELRSLTSEDSAVYYCAGSVVDRYWYFDVWGAGTTVTVSS VL: QIVLTQSPAIMSASPGEKVTISCSASSSVSYMYWYQQKPGSSPKPWIYRTSNLASGVPARFSGSGSGTSYSLTISSMEAEDAATYYCQQYHSYPLTFGAGTKLELK

// result
1. 0.062
2. 0.563
3. 2.32
4. 0.058
5. 0.079
6. 0.063

For each of the items listed, what is its ELISA signal?
1. Ab_054 (H5S19-21A17C) (antibody, V domains shown, also called Ab_54) VH: QVQLKESGPGLVAPSQSLSITCTVSGFSLTSYGVHWVRQPPGKGLEWLGVIWAGGITNYNSALMSRLSISTDNSRSQVFLKMNSLQTDDTAMYYCARDWERDSSGPFPYWGQGTLVTVSA VL: DIQMTQTTSSLSASLGDRVTISCSASQGISNYLNWYQQKPDGTVKLLIYYTSSLHSGVPSRFSGSGSGTDYSLTISNLEPEDIATYFCQQYSKLPWTFGGGTKLEIK
2. Ab_074 (H5S20-52A21A) (antibody, V domains shown, also called Ab_74) VH: EVQLQQSGAELVKPGASVKLSCTASGFNIKDTYIHWLNQRPEQGLEWIGRIDPANGKTKFAPKFQDKATITADTSSNTAYLQLSSLTSEDTAVYYCAGYGNSPWFAYWGQGTLVTVSA VL: DVLMTQTPLSLPVSLGDQASISCRSSQSIVHSNGNTYLEWYLQKPGQSPKLLIYKVSNRVSGVPDRFSGSGSGTDFTLKISRVEAEDLGVYYCFQGSHVPLTFGAGTKLELK

// result
1. 2.23
2. 0.06

For each of the items listed, what is its ELISA signal?
1. Ab_036 (H5S15-12A13A) (antibody, V domains shown, also called Ab_36) VH: EVQLQQSGAELVKPGASVKLSCTASGFNIKDTYMHWVKQRPEQGLEWIGRIDPANGNTKFDPKFQGKATITADTSSNTAYLQLSSLTSEDTAVYYCASRGGSSFDYWGQGTTLTVSS VL: DIVLTQSPASLAVSLGQRATISCKASQSVDYDGESYMNWYQQKPGQPPKLLIYAASNLDSGIPARFSGSGSGTDFTLNIHPVEEEDAATYYCQQSNEDPLTFGAGTKLELK
2. Ab_073 (H5S20-9A9A) (antibody, V domains shown, also called Ab_73) VH: EVQLQQSGADLVKPGASVKLSCTASGFNIRDTYMHWVNQRPEQGLEWIGRIDPANGNTKYAPKFQGRATITADTSSNTAYLHLSSLTSEDTAVYYCAGYGNSPWFAYWGQGTLVTVSA VL: DVLMTQTPLSLPVNLGDQASISCRSSQSIVHSNGNTYLEWYLQKPGQSPKLLIYKVSNRFSGVPDRFSGSGSGTDFTLKISRVEAEDLGVYYCFQGSHVPLTFGAGTKLELK

// result
1: 0.079; 2: 0.062
